# Experimental target: Neuronal acetylcholine receptor subunit alpha-7 (Homo sapiens, UniProt P36544)
# Sequence (P36544 whole entry): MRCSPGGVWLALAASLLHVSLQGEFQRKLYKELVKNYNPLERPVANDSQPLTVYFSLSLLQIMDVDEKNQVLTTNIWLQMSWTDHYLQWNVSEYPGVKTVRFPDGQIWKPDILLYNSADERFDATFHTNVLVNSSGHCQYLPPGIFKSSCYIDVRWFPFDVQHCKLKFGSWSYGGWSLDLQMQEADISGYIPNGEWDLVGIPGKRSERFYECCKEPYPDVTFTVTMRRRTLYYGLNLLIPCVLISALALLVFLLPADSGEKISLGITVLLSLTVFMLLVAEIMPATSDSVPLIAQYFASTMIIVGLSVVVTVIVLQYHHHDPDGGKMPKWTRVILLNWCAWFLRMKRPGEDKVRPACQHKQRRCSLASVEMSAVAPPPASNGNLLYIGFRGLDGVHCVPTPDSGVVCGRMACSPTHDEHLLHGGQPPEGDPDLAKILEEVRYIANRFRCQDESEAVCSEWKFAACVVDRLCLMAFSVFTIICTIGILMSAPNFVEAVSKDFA
# Test name: Partial agonist activity at human alpha7 nAChR expressed in Xenopus laevis oocytes at 10 uM at -60 mV holding potential by measuring net charge by two electrode voltage-clamp assay
# Type: cell-based
# Assay context: Oocyte
The source made the active and inactive calls. No cut-off for these calls is given here.
Property measured: Activity

O=C(c1ccc(-c2cccc(I)c2)o1)N1CCN2CCC1CC2 inactive
O=C(c1ccc(-c2cccc(C(F)(F)F)c2)o1)N1C[C@H]2C[C@@H]1CN2 inactive
CCN1CCN2CCC1CC2 inactive

====

# Experimental target: Neuronal acetylcholine receptor subunit alpha-7 (Homo sapiens)
# Test name: Partial agonist activity at human alpha7 nAChR expressed in Xenopus laevis oocytes assessed as residual potentiation of Ach response at 10 uM at -60 mV holding potential by measuring net charge preincubated with compound followed by Ach addition after PNU-120596 addition by two electrode voltage-clamp assay
# Type: cell-based
# Assay context: Oocyte, filed as partial agonist
Quick reference for Activity among some compounds
Property measured: Activity

O=C(c1ccc(-c2ccc(C(F)(F)F)cc2)o1)N1CCN2CCC1CC2 3.23
O=C(c1ccc(-c2cccc(C(F)(F)F)c2)o1)N1CCN2CCC1CC2 111
